Origin of measurements: PubChem BioAssay

I'd appreciate it if you could supply composite z-score values for the items below.
- measurementTarget: Neurogenic locus notch homolog protein 2 (Homo sapiens)
- assayOverview: Notch2 binders on small-molecule microarrays, primary screen, biochemical, small-molecule microarray, 635 nm fluorescence, stem cell growth factors (AID 1073)
- measurementSetup: Notch2 binding, higher = more signal
One number for each entry.

>>> result("C=CC[C@@H]1C=C[C@H](ON=Cc2ccc(C(=O)N3[C@H](c4ccc(C)cc4)[C@@H](C)CC[C@H]3C(=O)OC)cc2)[C@@H](CO)O1")
0.842

Quick batch: composite z-score for everything below.
1. [N-]=[N+]=Nc1ccccc1C[C@@]1(C(N)=O)N=C(c2ccc(OCCCO)cc2)O[C@@H]1c1ccccc1
2. COC(=O)CC1OC1[C@H](C)[C@@H](OC)C(C)C (some centres undefined)
3. CO[C@@H]1COC(=O)CCC[C@@H](C)[C@H](OC)COC(=O)CCC[C@H]1C

Response line:
0.975
-0.624
0.633
